metric: melting point

- ClCc1ccc(CCl)o1: 27 to 28 °C
- COc1cc(Nc2c(C#N)cnc3cc(C#CCCO)c(OC)cc23)c(Cl)cc1Cl: 230 to 232 °C

Give melting point for all molecules that follow.
1. COC(C)=CC(=O)Nc1cccc(NC(C)=O)c1
2. COC(=O)C1(CCCCCCCCCCCCC2(C(=O)NC3CC3)CC2)CC1
3. N#Cc1cc(C2=Nc3ccc(-n4cccc4)cc3NC(=O)C2)ccn1

["167 °C", "50.6 to 53 °C", "243 to 244 °C"]

----------
Kindly state melting point for each of the entries shown.

// solved cases for melting point follow
• CCCN1CCCCC1C(=O)Nc1c(C)cccc1C (stereo unspecified) = 142 to 145 °C
• COC(=O)C1CCc2cc(C(=O)c3ccccc3Cl)c(O)cc21 (stereo unspecified) = 188 to 190 °C
• COC(=O)c1ccc(OCC(C)=O)c(C(=O)OC)c1 = 115 to 116 °C
• O=C(Oc1ccccc1C(=O)NCCO[N+](=O)[O-])c1cccnc1 = 94 to 96 °C
• Cn1c(C(F)(F)F)ccc(-c2cc3[nH]c(=O)oc3cc2Cl)c1=O = 263 to 265 °C

Give melting point for all compounds that follow.
1. CCCCCCCCCCCCCc1ccc(-c2nc(-c3ccccc3Cl)nn2C)cc1
2. c1ccc(C2(c3ccccc3)SCCS2)cc1
3. CC(=O)Oc1ccc(Cn2ccnc2SC(C)=O)cc1
4. CCOC(=O)/C=C(/c1ccccc1)c1ccc([N+](=O)[O-])c(COS(C)(=O)=O)c1

1. 55 to 57 °C
2. 104 to 105 °C
3. 99 to 101 °C
4. 87.8 °C

Give melting point for all compounds that follow.
1. O=C(CCc1cccnc1)NCCCCC1CCN(S(=O)(=O)c2ccc3ccccc3c2)CC1
2. CN1CC(=O)NC1=NC(=O)Nc1cccc([N+](=O)[O-])c1
3. O=C1CCc2cc(-c3cccs3)ccc21
4. O=C(NCC1C2(CCCC1(c1ccccc1)c1ccccc1)OCCO2)c1ccccc1 (racemic)
5. COC(=O)c1ccc2c(c1)S(=O)(=O)c1ccccc1O2
6. COc1ccc(-c2cnc3[nH]cc(C#N)c3n2)cc1OC

103 to 105 °C
182 to 188 °C
148 °C
162 °C
160 °C
284 to 285 °C

Give melting point for all compounds that follow.
1. O=C1CCC(N2Cc3c(OCc4cccc(CN5CCn6nc(C(F)(F)F)nc6C5)c4)cccc3C2=O)C(=O)N1 (stereo unspecified)
2. CS(=O)(=O)c1ccc(C(=O)c2cc(Cl)ccc2N)cc1

1: 213 to 215 °C; 2: 176 to 177 °C

----------
Kindly state melting point for each of the entries shown.

// solved cases for melting point follow
- CCCCC1OC(=O)COC1=O (stereo not given): 37 to 39 °C
- CSc1nc(Cl)cc2cnc(C)n12: 153 to 155 °C
- Nn1c(-c2ccccc2)nc2cc(C(F)(F)F)ccc21: 200 to 203 °C
- N#Cc1ccc2nc(C(=O)NCc3cccc(CNC(=O)Cc4nc[nH]n4)c3)[nH]c(=O)c2c1: 207 to 208 °C
- [N-]=[N+]=Nc1c([N+](=O)[O-])cnn1-c1c(Cl)cc(C(F)(F)F)c(Cl)c1Cl: 84 to 88 °C

Give melting point for all compounds that follow.
1. COCc1c(C(=O)OC(C)C)ncc2[nH]c3ccc(OCc4ccccc4Cl)cc3c12
2. NS(=O)(=O)c1ccc2c(c1)CCO2
3. CC(=O)Nc1ccc(NC(C)=O)c2c1C(=O)c1ccccc1C2=O
4. CSc1ccc(C(=O)c2c(C)cc3n2CCC3C(=O)OC(C)c2ccccc2)n1C (stereo not given)

135 to 141 °C
163 to 164 °C
278 to 280 °C
122 to 123 °C

Entry under test: COc1ccc2cccc3c2c1CCC3CNC(C)=O (stereo not given) . Its melting point was 126 °C
